# protocol details: Inhibition of microbial xanthine oxidase by spectrophotometry
Exercise: for every item that follows, state its recorded IC50.
Answers are plain numbers, in nM.

Batch request: IC50 per item, same order as input.
1. Cc1cc(=O)n2nc(COc3ccc(F)cc3)sc2n1
2. Cc1cc(=O)n2nc(COc3ccccc3Cl)sc2n1

1: 2240; 2: 1820

Batch request: IC50 per item, same order as input.
1. Cc1cc(=O)n2nc(COc3cccc(F)c3)sc2n1
2. Cc1ccc(OCc2nn3c(=O)cc(C)nc3s2)c(C)c1
3. COc1ccc(OCc2nn3c(=O)cc(C)nc3s2)cc1
4. Cc1cccc(OCc2nn3c(=O)cc(C)nc3s2)c1

[1660, 1730, 269, 1110]
